- MEASURED TARGET: T1, PUF4 RNA-binding domain (Saccharomyces cerevisiae, UniProt P25339 537-888)
- T1 sequence: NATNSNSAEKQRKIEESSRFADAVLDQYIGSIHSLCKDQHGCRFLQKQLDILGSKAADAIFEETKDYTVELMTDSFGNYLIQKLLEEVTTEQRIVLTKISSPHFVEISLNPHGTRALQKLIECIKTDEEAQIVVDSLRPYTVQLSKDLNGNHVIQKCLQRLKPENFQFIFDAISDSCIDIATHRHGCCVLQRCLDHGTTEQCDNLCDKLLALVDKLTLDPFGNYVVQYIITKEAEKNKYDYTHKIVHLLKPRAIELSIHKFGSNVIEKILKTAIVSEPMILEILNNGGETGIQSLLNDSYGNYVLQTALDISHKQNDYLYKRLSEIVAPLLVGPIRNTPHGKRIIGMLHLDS
- PROCEDURE TEXT: Mg; RNA-MaP; 20 mM Na-HEPES pH 7.4, 30 mM KOAc, 0.75 mM MgCl2, 0.1% Tween-20, 5% glycerol, 0.1 mg/mL BSA, 2 mM DTT; 25 C; 0.0125-409.6 nM protein
- PARTICULARS: tags: N-His6-TEV cleaved; C-SNAP kept, Cy3B-labelled; label: tethered on chip by stalled RNA polymerase
QUANTITY NAME: Kd (nM)
Reply with just the number (in nM).

[[record]]
binder = "UCUCUUUGUAUGUGUUCUCUU (ssRNA) [Ic_S1_P4E.1_K4.1_C4.1_H4.1_A4.1_[A6G]_F4.1_[T8G]_[A9T]_T4.1]"
readout_units = "nM"
measurement = 92.5

[[record]]
binder = "Ie_S4_P4E.1_K4.1_C4.1_H4.1_[+4CTC]_A4.1_F4.1_T4.1 (ssRNA) RNA: UUUGACAACUGAUCGUUCUUUCUUGUACUCUAUUAUUCUUUCUCGAUCAGUUGUCUUU"
readout_units = "nM"
measurement = 1.44

[[record]]
binder = "UCUCUUCCUAUAUAUUACUUCUCUU (ssRNA) [Id_ii_S1_P4E.3_K4.2_C4.2_[T-1C]_H4.2_A4.1_F4.1_T4.2_[G10C]]"
readout_units = "nM"
measurement = 20.1


Data request: What measured Kd goes with Ic_S2_P4E.1_K4.1_C4.1_H4.1_A4.1_[T7G]_F4.1_[A9T]_T4.1 (ssRNA) RNA: UUUGAUUAAUAUGAUAUCGUUCUUUCUUGUAUAGUUUUCUUUCUCGAUAUCAUAUUAAUCUUU ?
Data returned: 11.6

Data request: Name the recorded Kd for Id_ii_S2_P3E.3_K3.2_C3.2_[C-2A]_[T-1C]_H3.2_A3.1_F3.1_T3.2 (ssRNA) RNA: UUUGAUUAAUAUGAUAUCGUUCUUUCUACUAUAUAUAUAUUCUUUCUCGAUAUCAUAUUAAUCUUU .
Data returned: 66.8

Data request: Consider the binder shown here: Ic_S4_P3E.1_K3.1_C3.1_H3.1_A3.1_[T5A]_[A6C]_F3.1_[A8C]_T3.1 (ssRNA) RNA: UUUGACAACUGAUCGUUCUUUCUUGUAACUCUUCUUUCUCGAUCAGUUGUCUUU What is its recorded Kd?
Data returned: 78.8
